Attribution: patent US20090280138A1

MEASURED_ON: T1, MHC class I allele A*0201 monomer (human, biotinylated, bound to streptavidin-coated plate)
T1 construct: also called A2; HLA-A2
METHOD: iTopia, multiparametric iScore
Exercise: for every item that follows, state its recorded iScore.
Answer with a number only.

Q. // lookup iScore for LLVLYLNRK [5T4 9-mer peptide 186]
A. 0.386

Q. // lookup iScore for FLTGNQLAV [5T4 9-mer peptide 49]
A. 0.791

Q. // lookup iScore for GLPHIRVFL [5T4 9-mer peptide 142]
A. 1.39

Q. // lookup iScore for VFLGIVLAL (also called VFLGIVLAL) [5T4 9-mer peptide 179]
A. 0.606
